Assay: in vivo
Conditions: mouse, in vivo, sc
Procedure: Mice were given one of at least three different doses of each compound, orally or subcutaneously, a minimum of 10 mice allotted to each dose. The number of animals which died at each dose within 3 hours was determined. This experiment was repeated after the animals had been pretreated with atropine sulphate, which blocks both peripheral and central muscarinic receptors. What is important is the safety of the drugs and the presence and severity of side effects that may occur at therapeutic doses. […]
PROPERTY: LD50 at 3 h (µmol/kg)
The figure you give is taken to be in µmol/kg; do not add the unit.

Query: Please report the recorded LD50 at 3 h for CCNC(=O)Oc1cccc(C(C)N(C)C)c1 (stereo not drawn) [RA6] .
Response: 96

Query: Can you share its LD50 at 3 h? I mean this compound: CNC(=O)Oc1ccc2c(c1)[C@]1(C)CCN(C)[C@@H]1N2C [Physostigmine, reference compound]
Response: 3

Query: LD50 at 3 h lookup needed for CNC(=O)Oc1cccc(C(C)N(C)C)c1 (stereo not drawn) [Miotine, reference compound] , thanks.
Response: 4.5

Query: What value of LD50 at 3 h has been reported for the following compound? C=CCNC(=O)Oc1cccc(C(C)N(C)C)c1 (stereo not drawn) [RA14]
Response: 69

Query: // returns reported LD50 at 3 h for input CC(c1cccc(OC(=O)NC2CCCCC2)c1)N(C)C (stereo not drawn) [RA12]
Response: 42

Query: Quick one: LD50 at 3 h of CCN(C)C(=O)Oc1cccc(C(C)N(C)C)c1 (stereo not drawn) [RA7] ?
Response: 46

Query: Entry CCCCNC(=O)Oc1cccc(C(C)N(C)C)c1 (stereo not drawn) [RA5] has what LD50 at 3 h?
Response: 19

Query: Entry CC(C)NC(=O)Oc1cccc(C(C)N(C)C)c1 (stereo not drawn) [RA13] has what LD50 at 3 h?
Response: 65

Query: Quick one: LD50 at 3 h for CCCN(C)C(=O)Oc1cccc(C(C)N(C)C)c1 (stereo not drawn) [RA4] ?
Response: 72

Query: So what's the measured LD50 at 3 h for this one? CC(c1cccc(OC(=O)N(C)C)c1)N(C)C (stereo not drawn) [RA10]
Response: 14

Query: What does the record list as LD50 at 3 h for CCCNC(=O)Oc1cccc(C(C)N(C)C)c1 (stereo not drawn) [RA15] ?
Response: 31

###

assay: in vivo; conditions: mouse, in vivo, sc, Therapeutic ratio LD50/ED50 s.c., mice; ED50 = dose inhibiting brain acetylcholinesterase by 50%
Note to self: values exactly at 8 are yes (1). So selectivity ratio at or above 8 is yes (1), below is no (0).

Query: Please indicate if the recorded selectivity ratio for CC(c1cccc(OC(=O)NC2CCCCC2)c1)N(C)C (stereo not shown) meets or exceeds 8.
Response: no (0)

Query: Given CCNC(=O)Oc1cccc(C(C)N(C)C)c1 (stereo not shown) , state whether its selectivity ratio is at least 8.
Response: yes (1)

Query: Hello, I need to know if CCCN(C)C(=O)Oc1cccc(C(C)N(C)C)c1 (stereo not shown) has measured selectivity ratio not below 8. Thanks!
Response: yes (1)

Query: Determine whether this compound has selectivity ratio no lower than 8: C=CCNC(=O)Oc1cccc(C(C)N(C)C)c1 (stereo not shown)
Response: yes (1)

Query: # check: selectivity ratio of CCCCNC(=O)Oc1cccc(C(C)N(C)C)c1 (stereo not shown) is greater than or equal to 8
Response: no (0)

Query: Determine whether measured selectivity ratio meets or exceeds 8 for CC(c1cccc(OC(=O)N(C)C)c1)N(C)C (stereo not shown)
Response: yes (1)

Query: Reported selectivity ratio at or above 8? CCCNC(=O)Oc1cccc(C(C)N(C)C)c1 (stereo not shown)
Response: yes (1)

Query: Has CNC(=O)Oc1cccc(C(C)N(C)C)c1 (stereo not shown) [Miotine, reference compound] a recorded selectivity ratio greater than or equal to 8?
Response: no (0)

Query: Quick check, selectivity ratio >= 8? CC(C)NC(=O)Oc1cccc(C(C)N(C)C)c1 (stereo not shown)
Response: no (0)

Query: Record CCN(CC)C(=O)Oc1cccc(C(C)N(C)C)c1 (stereo not shown) ; criterion: selectivity ratio no lower than 8. Met?
Response: yes (1)

###

assay: in vivo; settings: mouse, in vivo, Ratio whose head is drawing 10 (Table 3; oral LD50 compared with s.c. LD50), mice, oral versus s.c.
Give selectivity ratio for every item shown.
The answer should be a number; do not append a unit.

Query: Field request: selectivity ratio | item: CNC(=O)Oc1cccc(C(C)N(C)C)c1 (stereo not drawn) [Miotine, reference compound]
Response: 1.2

Query: What value of selectivity ratio has been reported for the following molecule? CCCN(C)C(=O)Oc1cccc(C(C)N(C)C)c1 (stereo not drawn) [RA4]
Response: 1.7

Query: Given the entry C=CCNC(=O)Oc1cccc(C(C)N(C)C)c1 (stereo not drawn) [RA14] , report its measured selectivity ratio.
Response: 4.4

Query: Request the reported selectivity ratio associated with CC(C)NC(=O)Oc1cccc(C(C)N(C)C)c1 (stereo not drawn) [RA13]
Response: 1.1

Query: Look at this molecule and give its reported selectivity ratio. CCNC(=O)Oc1cccc(C(C)N(C)C)c1 (stereo not drawn) [RA6]
Response: 2.1

Query: selectivity ratio; subject: CCCNC(=O)Oc1cccc(C(C)N(C)C)c1 (stereo not drawn) [RA15]
Response: 4.5

Query: Quick one: selectivity ratio for CC(c1cccc(OC(=O)NC2CCCCC2)c1)N(C)C (stereo not drawn) [RA12] ?
Response: 3.6

Query: Which selectivity ratio reading was recorded for the molecule CCCCNC(=O)Oc1cccc(C(C)N(C)C)c1 (stereo not drawn) [RA5] ?
Response: 5

Query: State the recorded selectivity ratio for this entry: CC(c1cccc(OC(=O)N(C)C)c1)N(C)C (stereo not drawn) [RA10]
Response: 9.7

###

system: brain acetylcholinesterase; conditions: mouse brain, s.c., physostigmine = 100
Cut-off 10 on Relative potency to physostigmine after subcut. (s.c.) administration, inclusive. At or above means True; below means False.

Query: Can CC(C)NC(=O)Oc1cccc(C(C)N(C)C)c1 (stereo not drawn) be said to have Relative potency to physostigmine after subcut. (s.c.) administration at or above 10?
Response: False

Query: Determine whether measured Relative potency to physostigmine after subcut. (s.c.) administration meets or exceeds 10 for CC(c1cccc(OC(=O)N(C)C)c1)N(C)C (stereo not drawn)
Response: True

Query: Answer whether Relative potency to physostigmine after subcut. (s.c.) administration of CCCNC(=O)Oc1cccc(C(C)N(C)C)c1 (stereo not drawn) is greater than or equal to 10.
Response: True

Query: Identify whether the reported Relative potency to physostigmine after subcut. (s.c.) administration of the following compound is 10 or greater: CCCN(C)C(=O)Oc1cccc(C(C)N(C)C)c1 (stereo not drawn)
Response: True

Query: Does the compound C=CCNC(=O)Oc1cccc(C(C)N(C)C)c1 (stereo not drawn) have recorded Relative potency to physostigmine after subcut. (s.c.) administration that is 10 or more?
Response: True

Query: Can CCN(CC)C(=O)Oc1cccc(C(C)N(C)C)c1 (stereo not drawn) be said to have Relative potency to physostigmine after subcut. (s.c.) administration at or above 10?
Response: False

###

molecular target: acetylcholinesterase (Mus musculus, UniProt P21836); construct: A solubilized preparation of acetylcholinesterase was prepared from mouse whole brain (minus cerebellum); assay: biochemical
pIC50: −log10 of the molar value.
Is pIC50 at least 7? Then 1 (yes). If not, 0 (no).

Query: Could you please find out whether CCCN(C)C(=O)Oc1cccc(C(C)N(C)C)c1 (stereo not drawn) has pIC50 that meets 7 or exceeds it?
Response: 0 (no)

Query: hey, is pIC50 for this one >= 7? CC(c1cccc(OC(=O)N(C)C)c1)N(C)C (stereo not drawn)
Response: 1 (yes)

Query: Reported pIC50 reaches at least 7 for C=CCNC(=O)Oc1cccc(C(C)N(C)C)c1 (stereo not drawn) ?
Response: 0 (no)

Query: Identify whether the reported pIC50 of the following compound is 7 or greater: CC(c1cccc(OC(=O)N2CCOCC2)c1)N(C)C (stereo not drawn)
Response: 0 (no)

###

Target: acetylcholinesterase (Mus musculus)
Construct: A solubilized preparation of acetylcholinesterase was prepared from mouse whole brain (minus cerebellum); from tissue; host or cells: mouse whole brain (minus cerebellum), membrane pellet solubilized with 1% Triton
Sequence (P21836 32-614): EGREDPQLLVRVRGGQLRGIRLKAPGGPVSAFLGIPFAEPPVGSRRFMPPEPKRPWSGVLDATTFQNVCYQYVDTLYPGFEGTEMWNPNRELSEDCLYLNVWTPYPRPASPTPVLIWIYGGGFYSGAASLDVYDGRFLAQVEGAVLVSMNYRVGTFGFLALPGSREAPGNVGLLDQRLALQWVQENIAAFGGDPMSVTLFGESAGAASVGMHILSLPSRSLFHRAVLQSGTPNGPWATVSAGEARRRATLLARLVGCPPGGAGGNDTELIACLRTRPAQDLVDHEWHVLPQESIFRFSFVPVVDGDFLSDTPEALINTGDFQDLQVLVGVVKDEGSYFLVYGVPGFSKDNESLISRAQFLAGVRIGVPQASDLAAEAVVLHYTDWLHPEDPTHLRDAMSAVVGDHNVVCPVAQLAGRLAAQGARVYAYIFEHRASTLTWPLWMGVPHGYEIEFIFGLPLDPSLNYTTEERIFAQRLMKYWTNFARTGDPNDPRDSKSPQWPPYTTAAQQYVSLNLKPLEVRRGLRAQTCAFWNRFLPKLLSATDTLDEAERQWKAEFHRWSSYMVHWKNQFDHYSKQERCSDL
Experiment: biochemical
Format: biochemical
Conditions: incubation of enzyme with inhibitor, 37° C.
Protocol: A solubilized preparation of acetylcholinesterase was prepared from mouse whole brain (minus cerebellum). […] The activity of the enzyme (rate of hydrolysis of substrate, acetylthiocholine) was measured using at least 4 different concentrations of substrate, and at least 3 different concentrations of each inhibitor. […]
Please respond with reported Time of peak activity for every item in the list.
A number alone suffices; assume min.

Query: Dear colleague, I am looking for the recorded Time of peak activity of the following compound: CCNC(=O)Oc1cccc(C(C)N(C)C)c1 (centres unmarked)
Response: 120

Query: Item CCCCNC(=O)Oc1cccc(C(C)N(C)C)c1 (centres unmarked) has what recorded Time of peak activity?
Response: 120

Query: I would be grateful if you could share the reported Time of peak activity for CCN(CC)C(=O)Oc1cccc(C(C)N(C)C)c1 (centres unmarked) .
Response: 30

Query: Look at this compound and give its reported Time of peak activity. C=CCNC(=O)Oc1cccc(C(C)N(C)C)c1 (centres unmarked)
Response: 120

Query: Quick one: Time of peak activity for CCCN(C)C(=O)Oc1cccc(C(C)N(C)C)c1 (centres unmarked) ?
Response: 60

Query: What does the data say about its Time of peak activity? Entry: CC(C)NC(=O)Oc1cccc(C(C)N(C)C)c1 (centres unmarked)
Response: 120

Query: Need Time of peak activity of CC(c1cccc(OC(=O)N2CCOCC2)c1)N(C)C (centres unmarked) , thanks.
Response: 30

Query: // returns reported Time of peak activity for input CCCNC(=O)Oc1cccc(C(C)N(C)C)c1 (centres unmarked)
Response: 120

Query: Requested read-out: Time of peak activity. Entry: CC(c1cccc(OC(=O)NC2CCCCC2)c1)N(C)C (centres unmarked)
Response: 120

Query: Can you look up the measured Time of peak activity of CC(c1cccc(OC(=O)N(C)C)c1)N(C)C (centres unmarked) for me?
Response: 120

Query: Can you look up the measured Time of peak activity of CNC(=O)Oc1cccc(C(C)N(C)C)c1 (centres unmarked) [Miotine, reference compound] for me?
Response: 30
